Test: S. cerevisiae growth modulation with rapamycin, primary screen, strain BY4716, OD600, 96 h (AID 1091); also: test concentration not given here
Details: higher = more signal, called active from +8 up or from −8 down
MEASUREMENT KIND: z-score
// return just the number, without any unit appended

Completed entries (count: 3):
>  <MOLECULE>
O=c1cccc(-c2cccc(Cl)c2)o1

>  <z-score>
5.45

$$$$
>  <MOLECULE>
COc1cc(CO)cc(I)c1O[C@H]1C=C(C(=O)NCCO)C[C@@H](NCc2ccccc2F)[C@@H]1O

>  <z-score>
0.519

$$$$
>  <MOLECULE>
CC(C)(C)OC(=O)CC[C@@]1(C(=O)O)N=C(c2ccc(OCCCO)cc2)O[C@@H]1c1ccccc1CN=[N+]=[N-]

>  <z-score>
0.0515

$$$$

Prompt: Please give the measured z-score for this molecule: "CC(C)(C)OC(=O)CC[C@@]1(C(=O)O)N=C(c2ccc(OCCCO)cc2)O[C@@H]1c1ccccc1"
Completion: 0.519

Prompt: Please give the measured z-score for this molecule: CC(C)C(O)C1C=CC2C(=O)N(C)C(=O)C2N1N(c1ccccc1)c1ccccc1 (stereo not given)
Completion: 1.5
